test system: Saccharomyces cerevisiae; assay: Antimicrobial activity against Saccharomyces cerevisiae containing disruption in YOR345C gene by broth microdilution method; assay type: functional
Measured MIC by item
Value expressed in µg/mL; do not type the unit.

INSERT INTO results (compound, quantitative_result) VALUES
  ('CN1C(=O)[C@]23CC4=CC=C[C@H](O)[C@H]4N2C(=O)[C@@]1(CO)SS3 [GLIOTOXIN]', 16),
  ('OC(Cn1cncn1)(Cn1cncn1)c1ccc(F)cc1F [FLUCONAZOLE]', 16),
  ('C[C@@H]1C[C@@H]([C@H](O)CC2CC(=O)NC(=O)C2)C(=O)[C@@H](C)C1 [CYCLOHEXIMIDE]', 0.025),
  ('CC[C@H](C)C[C@H](C)CCCCCCCCC(=O)N[C@H]1C[C@@H](O)[C@@H](NCCN)NC(=O)[C@@H]2[C@@H](O)CCN2C(=O)[C@H]([C@H](O)CCN)NC(=O)[C@H]([C@H](O)[C@@H](O)c2ccc(O)cc2)NC(=O)[C@@H]2C[C@@H](O)CN2C(=O)[C@H]([C@@H](C)O)NC1=O [CASPOFUNGIN]', 0.007);

Moving on to another compound below.
In one line, give reported MIC of the entry C[C@@H]1[C@H](O)[C@@H](C)/C=C/C=C/C=C/C=C/C=C/C=C/C=C/[C@H](O[C@@H]2O[C@H](C)[C@@H](O)[C@H](N)[C@@H]2O)C[C@@H]2O[C@](O)(C[C@@H](O)C[C@@H](O)[C@H](O)CC[C@@H](O)C[C@@H](O)CC(=O)O[C@H]1C)C[C@H](O)[C@H]2C(=O)O [AMPHOTERICIN B] . 0.5

----------
Measured log10 MIC by item
tested on: Saccharomyces cerevisiae; experiment: Antimicrobial activity against Saccharomyces cerevisiae containing disruption in YLR456W gene by broth microdilution method; type: functional
// do not treat as linear: log10 of MIC, unit µg/mL

Use these answered entries as a reference point.
INSERT INTO results (compound, measure, quantitative_result) VALUES
  ('CC[C@H](C)C[C@H](C)CCCCCCCCC(=O)N[C@H]1C[C@@H](O)[C@@H](NCCN)NC(=O)[C@@H]2[C@@H](O)CCN2C(=O)[C@H]([C@H](O)CCN)NC(=O)[C@H]([C@H](O)[C@@H](O)c2ccc(O)cc2)NC(=O)[C@@H]2C[C@@H](O)CN2C(=O)[C@H]([C@@H](C)O)NC1=O', 'log10 MIC', -2.15),
  ('CN1C(=O)[C@]23CC4=CC=C[C@H](O)[C@H]4N2C(=O)[C@@]1(CO)SS3', 'log10 MIC', 0.90),
  ('C[C@@H]1[C@H](O)[C@@H](C)/C=C/C=C/C=C/C=C/C=C/C=C/C=C/[C@H](O[C@@H]2O[C@H](C)[C@@H](O)[C@H](N)[C@@H]2O)C[C@@H]2O[C@](O)(C[C@@H](O)C[C@@H](O)[C@H](O)CC[C@@H](O)C[C@@H](O)CC(=O)O[C@H]1C)C[C@H](O)[C@H]2C(=O)O', 'log10 MIC', -0.30),
  ('OC(Cn1cncn1)(Cn1cncn1)c1ccc(F)cc1F', 'log10 MIC', 1.20);

Moving on to another compound below.
In one line, give reported log10 MIC of the entry C[C@@H]1C[C@@H]([C@H](O)CC2CC(=O)NC(=O)C2)C(=O)[C@@H](C)C1 [CYCLOHEXIMIDE] . -1.60
